Target: Sm.5HTR (Schistosoma mansoni)
Sequence (G4V5G4 entry or part of it): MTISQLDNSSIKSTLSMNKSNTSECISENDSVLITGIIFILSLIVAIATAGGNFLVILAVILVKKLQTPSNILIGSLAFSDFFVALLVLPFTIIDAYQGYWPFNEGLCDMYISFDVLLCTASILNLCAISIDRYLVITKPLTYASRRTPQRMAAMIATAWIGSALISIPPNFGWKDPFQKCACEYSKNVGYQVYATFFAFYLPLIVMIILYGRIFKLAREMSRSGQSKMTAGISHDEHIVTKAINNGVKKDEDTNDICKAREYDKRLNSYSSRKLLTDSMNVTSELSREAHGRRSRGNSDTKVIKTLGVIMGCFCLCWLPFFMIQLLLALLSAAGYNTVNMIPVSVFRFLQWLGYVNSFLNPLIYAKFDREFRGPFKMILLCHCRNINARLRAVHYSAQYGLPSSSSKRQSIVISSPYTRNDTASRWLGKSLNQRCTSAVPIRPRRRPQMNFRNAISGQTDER
Test: cell-based
Assay type: cell-based
Conditions: Fig 5F
recorded-metric: ligand type at Sm.5HTR

Some solved cases for reference:
CN1C[C@H](C(=O)N[C@]2(C)O[C@@]3(O)[C@@H]4CCCN4C(=O)[C@H](Cc4ccccc4)N3C2=O)C[C@@H]2c3cccc4[nH]cc(c34)C[C@H]21 [dihydroergotamine]	Agonist
CN1C[C@H](CNC(=O)OCc2ccccc2)C[C@@H]2c3cccc4c3c(cn4C)C[C@H]21	Antagonist
CCN(CC)C(=O)[C@@H]1C=C2c3cccc4[nH]cc(c34)C[C@H]2N(C)C1 [LSD, lysergic acid diethylamide]	Antagonist
CN1C[C@H](C(=O)N[C@]2(C)O[C@@]3(O)[C@@H]4CCCN4C(=O)[C@H](Cc4ccccc4)N3C2=O)C=C2c3cccc4[nH]cc(c34)C[C@H]21	Agonist

Moving on to another compound below.
input: I have this compound here, `CC(C)C[C@H]1C(=O)N2CCC[C@H]2[C@]2(O)O[C@](NC(=O)[C@@H]3C=C4c5cccc6[nH]c(Br)c(c56)C[C@H]4N(C)C3)(C(C)C)C(=O)N12` , and I need its recorded ligand type at Sm.5HTR.
output: Antagonist

---

Biological target: Sm.5HTRL (Schistosoma mansoni, UniProt A0A173FEI8)
Sequence (A0A173FEI8 entry or part of it): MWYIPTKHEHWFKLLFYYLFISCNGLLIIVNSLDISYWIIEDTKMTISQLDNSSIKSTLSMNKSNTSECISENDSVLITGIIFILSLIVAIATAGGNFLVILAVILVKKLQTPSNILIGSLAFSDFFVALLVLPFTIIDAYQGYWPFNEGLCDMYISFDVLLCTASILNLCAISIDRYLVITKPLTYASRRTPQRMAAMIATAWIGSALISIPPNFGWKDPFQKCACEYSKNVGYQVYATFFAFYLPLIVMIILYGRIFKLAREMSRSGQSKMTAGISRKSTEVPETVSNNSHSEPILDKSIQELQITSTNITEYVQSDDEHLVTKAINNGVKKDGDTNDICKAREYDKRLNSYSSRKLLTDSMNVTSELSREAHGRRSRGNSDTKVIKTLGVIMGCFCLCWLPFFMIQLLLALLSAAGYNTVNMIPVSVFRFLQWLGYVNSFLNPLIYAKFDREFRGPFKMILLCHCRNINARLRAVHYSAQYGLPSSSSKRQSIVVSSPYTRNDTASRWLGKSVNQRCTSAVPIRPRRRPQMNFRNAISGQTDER
Test: GloSensor cAMP assay in HEK293 cells expressing Sm.5HTRL
Settings: F22 sensor with IBMX; read-out: EC50 (cAMP generation, Sm.5HTRL)
recorded-metric: EC50 (nM)
Give the quantity in nM, number only.

input: // lookup EC50 | system=Sm.5HTRL (Schistosoma mansoni, UniProt A0A173FEI8) | key= `NCCc1c[nH]c2ccc(O)cc12`
output: 200

---

Catalogue of molecules with associated pEC50
Biological target: UniProtKB G4V5G4
Test: cell-based
Assay type: cell-based
Conditions: pEC50 ± S.E.M
Procedure: HEK293 cells (ATCC CRL-1573.3) were cultured in DMEM supplemented with 10% fetal bovine serum (FBS), penicillin (100 units/ml), streptomycin (100 μg/ml), and L-glutamine (290 μg/ml). Cells were transiently transfected (ViaFect, Promega) as per the manufacturer’s protocol at a density of 2x10^6 cells per T-25 cell-culture flask. […] Epitope tagged constructs were used to verify expression, and untagged constructs used for all luminescence assays. […]
Scale for pEC50: -log10 of concentration given in mol/L; no unit attached.

CN1C[C@H](C(=O)N[C@]2(C)O[C@@]3(O)[C@@H]4CCCN4C(=O)[C@H](Cc4ccccc4)N3C2=O)C[C@@H]2c3cccc4[nH]cc(c34)C[C@H]21 [dihydroergotamine]	6.50

Moving on to another molecule below.
input: I have this molecule here, `CN1C[C@H](C(=O)N[C@]2(C)O[C@@]3(O)[C@@H]4CCCN4C(=O)[C@H](Cc4ccccc4)N3C2=O)C=C2c3cccc4[nH]cc(c34)C[C@H]21` , and I need its recorded pEC50.
output: 6.64

---

Biological target: Sm.5HTR (Schistosoma mansoni)
Test: cell-based
Type: cell-based
Conditions: EC50 (agonist, cAMP generation), F22 sensor with IBMX
recorded-metric: pEC50
Scale for pEC50: -log10 of concentration given in mol/L; no unit attached.

CN1C[C@H](C(=O)N[C@]2(C)O[C@@]3(O)[C@@H]4CCCN4C(=O)[C@H](Cc4ccccc4)N3C2=O)C=C2c3cccc4[nH]cc(c34)C[C@H]21 [ergotamine]	6.63

Moving on to another compound below.
input: I have this compound here, CN1C[C@H](C(=O)N[C@]2(C)O[C@@]3(O)[C@@H]4CCCN4C(=O)[C@H](Cc4ccccc4)N3C2=O)C[C@@H]2c3cccc4[nH]cc(c34)C[C@H]21 [dihydroergotamine] , and I need its recorded pEC50.
output: 6.50

---

Target: Sm.5HTR (Schistosoma mansoni)
Assay: cell-based
Type: cell-based
Details: IC50 (antagonism of 5-HT evoked cAMP generation), 5-HT at EC80
recorded-metric: IC50

input: I have this compound here, COc1cc2c(cc1OC)[C@@H]1Cc3ccc(OC)c(OC)c3CN1CC2 [rotundine] , and I need its recorded IC50.
output: ~700 nM
